- experimental_target: T1, IL-2Rβ/γ on M07e cells (human, UniProt P14784 27-551; P31785 23-369)
- T1 sequence (looked up) 1: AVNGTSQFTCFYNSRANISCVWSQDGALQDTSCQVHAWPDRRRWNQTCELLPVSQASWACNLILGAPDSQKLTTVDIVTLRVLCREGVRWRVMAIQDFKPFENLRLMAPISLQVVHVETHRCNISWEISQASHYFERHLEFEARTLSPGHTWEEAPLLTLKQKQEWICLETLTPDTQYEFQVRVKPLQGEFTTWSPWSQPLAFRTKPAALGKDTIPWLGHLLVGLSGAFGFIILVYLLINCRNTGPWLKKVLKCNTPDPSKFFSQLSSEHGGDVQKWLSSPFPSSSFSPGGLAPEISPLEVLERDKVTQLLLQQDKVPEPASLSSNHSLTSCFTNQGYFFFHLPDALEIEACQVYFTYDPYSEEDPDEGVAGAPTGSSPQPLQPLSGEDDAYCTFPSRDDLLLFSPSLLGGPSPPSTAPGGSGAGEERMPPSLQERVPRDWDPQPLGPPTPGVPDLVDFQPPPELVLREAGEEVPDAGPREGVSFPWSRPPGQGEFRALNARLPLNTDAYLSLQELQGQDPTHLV
- T1 sequence (looked up) 2: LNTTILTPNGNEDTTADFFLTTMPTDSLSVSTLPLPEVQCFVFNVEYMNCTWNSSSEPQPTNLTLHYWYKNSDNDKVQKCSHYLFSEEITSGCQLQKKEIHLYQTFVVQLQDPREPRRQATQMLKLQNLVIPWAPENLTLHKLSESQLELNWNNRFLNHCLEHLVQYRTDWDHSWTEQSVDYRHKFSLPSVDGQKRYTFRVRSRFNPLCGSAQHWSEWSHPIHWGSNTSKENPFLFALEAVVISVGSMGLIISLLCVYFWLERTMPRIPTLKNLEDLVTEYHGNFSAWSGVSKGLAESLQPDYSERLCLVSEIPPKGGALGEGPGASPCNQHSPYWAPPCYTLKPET
- assay_remarks: cell-based or functional assay
attribute_measured: M07e cell proliferation activity (%) at 1.4 nM

- binder: "A-PC (Fc fusion, also called positive control molecule A-PC; PD-1-IL-2v; not shown: IgG1 hinge (C220S) + Fc Knob chain (L234A, L235A, S354C, T366W, EU); D356/L358 or E356/M358 ver; IgG1 hinge (C220S) + Fc Hole chain (L234A, L235A, Y349C, T366S, L368A, Y407V; may have H435R, Y436F; EU)) chain (part 1 of 2): EVQLVESGGGLVQPGGSLRLSCAASGLTFSDYSMSWYRQAPGKGRELVAIISGSGVITHYVDSVKGRFTISRDNAKNTLYLQMRSLRAEDTAVYYCRAVSDWEDYWGQGTQVTVSS chain (part 2 of 2): GGGGSGGGGSGGGGSAPASSSTKKTQLQLEHLLLDLQMILQGISNYKNPKLTRMLTAKFYMPKKATELKHLQCLEEELKPLEEVLQGAQSKNFHLRPRDLISNINVIVLELKGSETTFMCEYADETATIVEFLNRWITFAQSIISTLT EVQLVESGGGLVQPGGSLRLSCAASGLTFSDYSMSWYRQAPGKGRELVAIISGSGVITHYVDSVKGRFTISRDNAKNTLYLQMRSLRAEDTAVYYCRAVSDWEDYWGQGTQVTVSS"
  units_of_measure: "%"
  endpoint_result: 3.6
- binder: "A-D20A (Fc fusion, also called PD-1-IL-2v (D20A); not shown: IgG1 hinge (C220S) + Fc Knob chain (L234A, L235A, S354C, T366W, EU); D356/L358 or E356/M358 ver; IgG1 hinge (C220S) + Fc Hole chain (L234A, L235A, Y349C, T366S, L368A, Y407V; may have H435R, Y436F; EU)) chain (part 1 of 2): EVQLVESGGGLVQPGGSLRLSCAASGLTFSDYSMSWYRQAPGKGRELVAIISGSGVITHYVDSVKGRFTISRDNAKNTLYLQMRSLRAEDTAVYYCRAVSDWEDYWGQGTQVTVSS chain (part 2 of 2): GGGGSGGGGSGGGGSAPASSSTKKTQLQLEHLLLALQMILQGISNYKNPKLTRMLTAKFYMPKKATELKHLQCLEEELKPLEEVLQGAQSKNFHLRPRDLISNINVIVLELKGSETTFMCEYADETATIVEFLNRWITFAQSIISTLT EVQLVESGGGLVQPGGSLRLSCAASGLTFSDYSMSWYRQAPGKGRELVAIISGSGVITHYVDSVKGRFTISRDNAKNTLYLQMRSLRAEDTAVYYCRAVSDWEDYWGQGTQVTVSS"
  units_of_measure: "%"
  endpoint_result: -2.6
- binder: "PEGylated IL-2 mutant (PEG-IL-2v) (ligand, PEGylated (site not stated)) APASSSTKKTQLQLEHLLLDLQMILQGISNYKNPKLTRMLTAKFYMPKKATELKHLQCLEEELKPLEEVLQGAQSKNFHLRPRDLISNINVIVLELKGSETTFMCEYADETATIVEFLNRWITFAQSIISTLT"
  units_of_measure: "%"
  endpoint_result: 2.6

Ref: patent EP4477673A1
